Attribution: the RepoRT retention time repository (doi:10.1016/j.scitotenv.2015.08.078)

experimental_details: RP, Waters ACQUITY UPLC BEH C18, 100 × 2.1 mm, 1.7 µm, 0.3 mL/min, estimated dead time 0.73 min; A: water + 0.1% formic acid, pH 3; B: methanol + 0.1% formic acid, pH 3; gradient (min/%B) 0/10 14/90 16/90 18/10
stated_conditions: stereoisomer not certain
Exercise: state measured LC retention time for each of the compounds provided.
Report only the number, with the unit min understood.

Lookup result for CC12C=CC(=O)C=C1CCC1C2CCC2(C)C(=O)CCC12 (stereo not given) ; measured LC retention time: 9.82

Lookup result for `O=[N+]([O-])/N=C1\NCCN1Cc1ccc(Cl)nc1` ; measured LC retention time: 4.63

Lookup result for CC(Cc1ccc(C(C)(C)C)cc1)CN1CC(C)OC(C)C1 (stereo not given) ; measured LC retention time: 14.1

Lookup result for `O=C1CN(N=Cc2ccc([N+](=O)[O-])o2)C(=O)N1` ; measured LC retention time: 2.83

Lookup result for `COc1nn(CSP(=S)(OC)OC)c(=O)s1` ; measured LC retention time: 9.91

====

Exercise: state measured LC retention time for each of the compounds provided.
experimental_details: RP, Waters ACQUITY UPLC BEH C18, 100 × 2.1 mm, 1.7 µm, 0.3 mL/min, estimated dead time 0.73 min; A: water + 0.1% formic acid, pH 3; B: methanol + 0.1% formic acid, pH 3; gradient (min/%B) 0/10 14/90 16/90 18/10
stated_conditions: stereoisomer not certain
Report only the number, with the unit min understood.

Lookup result for CCCC1CC(C(=O)NC(C(C)O)C2OC(SC)C(O)C(O)C2O)N(C)C1 (centres undefined) ; measured LC retention time: 3.56

Lookup result for `CCC(C)(CC)c1cc(NC(=O)c2c(OC)cccc2OC)on1` ; measured LC retention time: 10.4

Lookup result for `O=C(NC(=O)c1c(F)cccc1F)Nc1ccc(Cl)cc1` ; measured LC retention time: 11.2

Lookup result for CC1CC2C(C(O)CC3(C)C2CCC3(O)C(=O)CO)C2(C)C=CC(=O)C=C12 (centres undefined) ; measured LC retention time: 9.42

Lookup result for `Cc1cccc2sc3nncn3c12` ; measured LC retention time: 6.05

Lookup result for `CCOP(=S)(OCC)Oc1cc(C)nc(N(CC)CC)n1` ; measured LC retention time: 13

Lookup result for `O=C(NC(=O)c1c(F)cccc1F)Nc1cc(Cl)c(F)c(Cl)c1F` ; measured LC retention time: 13

Lookup result for `CNC(=O)Oc1cc(C)c(S(C)(=O)=O)c(C)c1` ; measured LC retention time: 4.46

Lookup result for `CCOc1ccc(NC(=O)OC(C)C)cc1OCC` ; measured LC retention time: 9.88

====

experimental_details: RP, Waters ACQUITY UPLC BEH C18, 100 × 2.1 mm, 1.7 µm, 0.3 mL/min, estimated dead time 0.73 min; A: water + 0.1% formic acid, pH 3; B: methanol + 0.1% formic acid, pH 3; gradient (min/%B) 0/10 14/90 16/90 18/10
stated_conditions: stereoisomer not certain
Ranges used to classify LC retention time: low bracket (below 5 min), middle bracket (5 min to below 10 min), high bracket (10 min or more)

Would you mind sorting N#CC(CCc1ccc(Cl)cc1)(Cn1cncn1)c1ccccc1 (centres undefined) [Fenbuconazole] into the appropriate category?
high bracket

Would you mind sorting COP(=O)(OC)Oc1ccc(S(C)(=O)=O)c(C)c1 [Fenoxon sulfone] into the appropriate category?
middle bracket

Would you mind sorting COC1CC(OC2CC(C3OC(C)(O)C(C)CC3C)OC2C2(C)CCC(C3(C)CCC4(CC(O)C(C)C(C(C)C5OC(O)(CC(=O)O)C(C)C(OC)C5OC)O4)O3)O2)OC(C)C1OC (centres undefined) [Maduramicine] into the appropriate category?
high bracket

Would you mind sorting CCN(CC)CCOC(=O)c1ccc(N)cc1 [Procaine] into the appropriate category?
low bracket

Would you mind sorting CON(C)C(=O)Nc1ccc(Cl)cc1 [Monolinuron] into the appropriate category?
middle bracket

Would you mind sorting Cc1ncc([N+](=O)[O-])n1C [Dimetridazole] into the appropriate category?
low bracket

Would you mind sorting CCNC(=O)NC(=O)C(C#N)=NOC [Cymoxanil] into the appropriate category?
middle bracket

Would you mind sorting CCC(C)n1c(=O)[nH]c(C)c(Br)c1=O (centres undefined) [Bromacil] into the appropriate category?
middle bracket

Would you mind sorting CCNc1nc(Cl)nc(NC(C)(C)C)n1 [Terbuthylazine] into the appropriate category?
high bracket

Would you mind sorting CCC(C)Nc1c([N+](=O)[O-])cc(C(C)(C)C)cc1[N+](=O)[O-] (centres undefined) [Butralin] into the appropriate category?
high bracket

Would you mind sorting CCCC(Cn1cncn1)c1ccc(Cl)cc1Cl (centres undefined) [Penconazole] into the appropriate category?
high bracket

Would you mind sorting CC1COc2c(N3CCN(C)CC3)c(F)cc3c(=O)c(C(=O)O)cn1c23 (centres undefined) [Ofloxacin] into the appropriate category?
low bracket

Would you mind sorting CCn1cc(C(=O)O)c(=O)c2cc(F)c(N3CCN(C)CC3)cc21 [Pefloxacin] into the appropriate category?
low bracket

Would you mind sorting CC(C)Oc1cccc(NC(=O)c2ccccc2C(F)(F)F)c1 [Flutolanil] into the appropriate category?
high bracket

Would you mind sorting CON(C)C(=O)Nc1ccc(Cl)c(Cl)c1 [Linuron] into the appropriate category?
high bracket
